Sourced from the DeepSol protein solubility set

Assay: soluble on expression in E. coli; label from the status in PepcDB or PDB records
property: soluble on expression in E. coli

These recorded examples may help you get a feel for the data.
input.sequence: MGSDKIHHHHHHMAFWQSKTLTEMTSQEWESLCDGCGKCCLNKLIDDETEELYYTNAACLLLDHQTTSCQHYSDRFRYVPQCTVITAQNVHELTWLPDSCAYRRLAAGRALPSWHPLLTGSKDAMHLAGMSIQGKVVDERRVKDIEDHIVLWPLKDLD
soluble on expression in E. coli: not soluble
//
input.sequence: MRSPYLIGVFLAAGKSRRMGQNKLALPLKGENIGSLSLKTALSSRLDHVLVVERTEHASLEWIGAPYHAPPFQKRWSLHVCQDAEKGQGHSVSSGVRKAESMGADGIVILLADQPQLSVDHLNALVALAPESFAVSSFLGAFTPPIYFSSTCFPYVKGLKGDEGARRLLKSGQLGAGAVLEAKDSGELDDIDTPRGILEHHHHHH
soluble on expression in E. coli: not soluble
//
input.sequence: MGSDKIHHHHHHMGNVASSEVINQLEAWYQAIKRLQLAEATTIKHEVMQAIDGMDQDRKVFLYYHLIDSRYHLLIHQWDYAGAILKGLKAQVELKETDKLLRYYYYFFSGLYEFHTKQYIEAIHFYRLAESLLKDIPDDIEQAEFNYQLAVAYYEIDQHFVSMDHAEKALELYLQNDQYKNRVATTQMIVAANQLDLYQFASAEALYKNAIELASDVQDFFVKGMGYYNLGVCYDRQDKLDLARECFESALYVDLPKSQYQGVMVGTKYMLARVLFKQGILEEGMHWFEEAKALADEMKDASYQAKLSTIHSIYKERDEVEIDDGLRVLKEGKLWSDVFELAINAARHFQEKEDYSLAAKYFDEGLVAKDQIKAWKEDTAST
soluble on expression in E. coli: not soluble
//
input.sequence: MGSDKIHHHHHHMKKTERINDMLIFLNNKRYFNLKDLMVRYDISKSTALRDIQSLEEIGVPIYSELGRNGSYKIIENSVLSPIYFSVDEMYALYFSILTLNGYKTKPFNIESIALENKFKHVLPDNVRKNIAIMERTLSFEVTNHSNFSPFLKEILQGIFAERVYHLTYLKKDVEKALIAQFIRIESKFGQWYAKIFNFETNNVQIIRCDKILSIVETSNTKPKNLEELLNYLATFHRKPDAIDFIVIVNQRGKDIFDKENYPSMRIQKENEHYIITGYFNKQEVDLSRTIF
soluble on expression in E. coli: not soluble
//
input.sequence: MAHHHHHHMLNRSRLRRVWLGGTAANTSLGRDVMPSTGKYINIVSPTDVAANISAGAMPPEANVAAALPVPRIQYSKWNRALRSDVYDELLKLPLRYKLHDFAKLCPPQRCQEEPEAVGVVGRDSAVGYLPPLGPADPLDTIPFFVHRSSNGVLPGKVFSMHPRNLMPAFYLRIQQVEGDMFRFEEELLKIFPTKKIFVRSHSIYVYNVALDGRMVLHHWLLGLGF
soluble on expression in E. coli: not soluble
//
input.sequence: MSLNFYYATSILIKEVVVSTKWLLGISLMLSTVAQANENSNQDTDISIPSPWKHQVEFGYQAHSGNTESESLNSRLKSEYTMGRHRTYGEWKFYKLDKNGKEDKRQSTFAFQSDYKLGPKTYLYGSFYGTNSRYTAYFKDHTLSGGLGYQFAYTDEMVLELELGPGFRYQKPNLDEIDDDDIVFPDLVQEAIFRSNLKAEWQALNNLRFEAEMTMVSGRSNTSLDSNISLTNDITDHIALKIRQSRQYHNRMPEGLSKADSVISVNLLFEFEGHHHHHH
soluble on expression in E. coli: not soluble
//
input.sequence: MSLNFEYIINSLLETIKTYNFFVDWEKIENNIKKIEKRLHILNYLIGKENFKEEFFELLKEYPEVITVFPILIAVRDNKITILNENMELETLEFKEKKYLTDEEIERYYKFFKETGLEDLLKNRKIKNLVDYVFGVEVGMDTNARKNRIGDLMENIVKKYIENLCKQNKNLDYIFQATKDKIKQKWGINLTLDKTNRKFDFAVFNKNTKKLYLIEVNFYSGGGSKLKATAGEYRSLNEFIKNNNNNVQFIWITDGKGWNTAKNPLKESFNSGVVILNLKMVKEGLLKEILTQEGHHHHHH
soluble on expression in E. coli: soluble
//
input.sequence: MGSDKIHHHHHHMRKLIFIAFMVMSVCGYAQKYEVGTTTAVWKAPAAADFLHAKAIGVKYVEVAFNQCYRGVPVDEVIPRIKEMKAKIDSADIEVWSIHLPFSRTLDISVLDDRLRKENVDFMAEMIELCAMFQPTCLVLHPSSEPIADSIRAQRIANASESIAYLKKYADRIGAQLCIENLPRTCLGNTPEELMRIVGDIPDVKVCFDTNHYTKGTTEHFVAIVGSRIGTIHASDFDLVNECHWLPTQGNIKWGKLMQDLEKTGYKGVFMYEATKDHENNNVRPALERIAETFDKITDDYKTLK
soluble on expression in E. coli: not soluble

Read off the recorded soluble on expression in E. coli for MSLSDLFTTIKGQVTGKNVRIVLPEGTDERIVGAAARLQKENIVKPILLGNKAEIEAKAKEIGVSVEGIAIHEPATDPLFDELVAAFVERRKGKATEEAARKMLVDPNYFGTMLVYTGKAEGLVSGAAHSTGDTVRPALQIIKTKPGVSKVAGAMIMVRGEERYLFSDVAINIAPVAADLAENAIVSAETAEIFGIDPRVAMLSFSTKGSAKSDETEKVVEATALAKEKAPELTLDGEFQFDAAFVPTVAEKKAPGSVIKGDANVFIFPSLEAGNIGYKIAQRLGNFEAVGPILQGLNAPVNDLSRGCNTDDVYNLTLITAAQAVNKEGHHHHHH soluble

Read off the recorded soluble on expression in E. coli for MGSDKIHHHHHHMTERIRIGISSCLLGNKVRHDGGHKFDSYIVNVLGRYLDFVPVCPEVECGLPTPREPMRLAGDVHSPRLMTSKTWQDKTEQMQTWADSKVRELEGQGLCGFIFKRGSPSSGMERVKVYPFTDPREVKNVGAPVLKGSGLFARTFMEHFPLLPVEEEGRLNDPVLRENFIERLFVVRRWYDLLESGMAPGAVVEFHTRHKLLLLAHSTQKYREMGRLVAAVREYSPEQFRTEYRRLLMEALSVRATAGRHANVQQHIMGYFRRQLTTDEKQELVEIIDRYRNGLVPLIVPVTMLNHYVRKYGDEYLAGQYYLNPHPVELKLRNHI not soluble

Read off the recorded soluble on expression in E. coli for MKKFKNILFATQGLPGHSDALEQAIQLAYNNRGQLAGLIAFPAFPADLQRYQEPYEQSYLNTLMETVEACRSQHHIHKDEVPFPLMVEHSEQPAVAIIKSALNHHIDLLIKEAEPMTHSQQGFKALDMTLLRKCPCPVWLHR not soluble

----------
Assay: soluble on expression in E. coli; label from the status in PepcDB or PDB records

input.sequence: MTIDLNAMLAKRAEVLGEGNKFDVKLGNKTFYFVAPELASSEWNDRHQAFLEDIRDGLMTSATAREEFLGLALEDQAEEFAEAADNIGVDPFIIAQMAFQEHAEYVGKTQSQKSLNRTQRRAKQR
soluble on expression in E. coli: not soluble
//
input.sequence: MKLNIRAQTAQNQHNNSPIVLVHGLFGSLDNLGVLARDLVNDHNIIQVDMRNHGLSPRDPVMNYPAMAQDLVDTLDAQQIDKATFIGHSMGGKAVMALTALASDRIDKLVAIDIAPVDYHVRRHDEIFAAINAVSESDAQTRQQAAAIMRQHLNEEGVIQFLLKSFVDGEWRFNVPVLWDQYPHIVGWEKIPAWDHPALFIPGGNSPYVSEQYRDDLLAQFPQARAHVIAGAGHWVHAEKPDAVLRAIRRYLND
soluble on expression in E. coli: not soluble
//
input.sequence: MVIMLATMLHSIAVGNLLPSYVKTICVDMNPSTVTKLMDRGTHQAIGVVTDVGLFLPLLYLKIKEIEAKE
soluble on expression in E. coli: not soluble

----------
Assay: soluble on expression in E. coli; label from the status in PepcDB or PDB records
property: soluble on expression in E. coli

input.sequence: KGTSENKSTTATDTVQAEKPQSGTIHLTRAEFLKKIADYENHSKEWKYLGDKPAIVDFYADWCGPCKMVAPILEELSKEYAGKIYIYKVNVDKEPELARDFGIQGIPTIWFVPMKGEPQVNMGALSKEQLKGYIDKVLLKQ
property: soluble on expression in E. coli
result: soluble

input.sequence: GSMKTIKVKNKTEGSKVAFRMLEEEITFGAKTLGLATGSTPLELYKEIRESHLDFSDMVSINLDEYVGLSADDKQSYAYFMKQNLFAAKPFKKSYLPNGLAADLAKETEYYDQILAQYPIDLQILGIGRNAHIGFNEPGTAFSSQTHLVDLTPSTIAANSRFFEKAEDVPKQAISMGLASIMSAKMILLMAFGEEKAEAVAAMVKGPVTEEIPASILQTHPKVILIVDEKAGAGI
property: soluble on expression in E. coli
result: soluble
